Assay: Half life in normally fed BALB/c mouse at 10 mg/kg, im
Format: ADME, organism-based
Parameters: dose 10 mg/kg, route intramuscular
Conditions: in vivo
Quantity: half-life (min)
Give the number; min is assumed, so skip it.

**Query** So what does the record say about half-life for `NC[C@H]1O[C@H](O[C@H]2[C@H](O)[C@@H](O[C@H]3O[C@H](CO)[C@@H](O)[C@H](N)[C@H]3O)[C@H](N)C[C@@H]2N)[C@H](N)C[C@@H]1O` ?
**Result** 17.7

###

Test: Oral bioavailability in normally fed BALB/c mouse at 50 mg/kg, po
Type: ADME, organism-based
Details: in vivo
Quantity: bioavailability (%)
Give the number; % is assumed, so skip it.

**Query** So what does the record say about bioavailability for `NC[C@H]1O[C@H](O[C@H]2[C@H](O)[C@@H](O[C@H]3O[C@H](CO)[C@@H](O)[C@H](N)[C@H]3O)[C@H](N)C[C@@H]2N)[C@H](N)C[C@@H]1O` ?
**Result** 0.48

###

Assay: Oral bioavailability in normally fed BALB/c mouse at 10 mg/kg, im
Type: ADME, organism-based
Conditions: in vivo, intramuscular
Quantity: bioavailability (%)
Give the number; % is assumed, so skip it.

**Query** So what does the record say about bioavailability for `NC[C@H]1O[C@H](O[C@H]2[C@H](O)[C@@H](O[C@H]3O[C@H](CO)[C@@H](O)[C@H](N)[C@H]3O)[C@H](N)C[C@@H]2N)[C@H](N)C[C@@H]1O` ?
**Result** 96.5

###

Assay: Half life in normally fed BALB/c mouse at 50 mg/kg, po
Format: ADME, organism-based
Parameters: dose 50 mg/kg, route oral
Details: in vivo
Quantity: half-life (min)
Give the number; min is assumed, so skip it.

**Query** So what does the record say about half-life for `NC[C@H]1O[C@H](O[C@H]2[C@H](O)[C@@H](O[C@H]3O[C@H](CO)[C@@H](O)[C@H](N)[C@H]3O)[C@H](N)C[C@@H]2N)[C@H](N)C[C@@H]1O` ?
**Result** 41.6

###

Assay: AUClast in normally fed BALB/c mouse at 50 mg/kg, po
Format: ADME, organism-based
Parameters: time 0 - last, dose 50 mg/kg, route oral
Conditions: plasma
Quantity: AUC(0-t) (ng·h/mL)
Give the number; ng·h/mL is assumed, so skip it.

**Query** So what does the record say about AUC(0-t) for NC[C@H]1O[C@H](O[C@H]2[C@H](O)[C@@H](O[C@H]3O[C@H](CO)[C@@H](O)[C@H](N)[C@H]3O)[C@H](N)C[C@@H]2N)[C@H](N)C[C@@H]1O [TOBRAMYCIN] ?
**Result** 274

###

Assay: AUClast in 15 hrs fasted BALB/c mouse at 50 mg/kg, po
Format: ADME, organism-based
Design: time 0 - last, dose 50 mg/kg, route oral
Conditions: plasma
Quantity: AUC(0-t) (ng·h/mL)
Give the number; ng·h/mL is assumed, so skip it.

**Query** So what does the record say about AUC(0-t) for `NC[C@H]1O[C@H](O[C@H]2[C@H](O)[C@@H](O[C@H]3O[C@H](CO)[C@@H](O)[C@H](N)[C@H]3O)[C@H](N)C[C@@H]2N)[C@H](N)C[C@@H]1O` ?
**Result** 7060

Each recorded value in this set is attributed to ChEMBL document CHEMBL1255400.
